test_target: T1, human IL-4Rα (human, UniProt P24394 26-232)
T1 construct: also called Hu IL-4Rα; hIL-4Rα
T1 sequence: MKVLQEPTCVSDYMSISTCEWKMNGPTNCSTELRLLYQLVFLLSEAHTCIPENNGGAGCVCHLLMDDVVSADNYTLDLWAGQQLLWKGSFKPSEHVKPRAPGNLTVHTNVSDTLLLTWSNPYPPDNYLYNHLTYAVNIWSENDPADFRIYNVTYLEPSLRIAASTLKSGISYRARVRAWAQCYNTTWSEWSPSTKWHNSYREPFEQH
experiment: SPR, Carterra LSA;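 note: antibodies captured on an anti-human Fc sensor chip, antigen injected at several concentrations, association and dissociation rates fitted with a 1:1 Langmuir model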
We begin with a simple list: items and their reported Kd.
Number only, in nM; omit the unit.

Solved cases (2 shown):
• Construct 27 (mAb435) (antibody, IgG4, V domains shown, VH/VL only) VH: EVQLVESGGGLEQPGGSLRLSCAGSGFTFTDFAMTWVRQAPGKGLEWVSSISGSGGNKYYADSVKGRFTISRDNSKNTLYLQMNSLRAEDTAVYYCAKDRLSVTVRPRYYGLDVWGQGTTVTVSS VL: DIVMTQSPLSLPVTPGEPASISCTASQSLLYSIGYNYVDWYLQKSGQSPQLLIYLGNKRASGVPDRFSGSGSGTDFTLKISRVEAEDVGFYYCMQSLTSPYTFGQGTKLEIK = 0.0126
• Construct 41 (mAb478) (antibody, IgG4, V domains shown, VH/VL only) VH: EVQLVESGGGLEQPGGSLRLSCAGSGFTFRDFAMTWVRQAPGKGLEWVSSISGGGGNTYYADSVKGRFTISRDNSKNTLYLQMNSLRAEDTAVYYCAKDRVSITIRPRYYGLDVWGQGTTVTVSS VL: DIVMTQSPLSLPVTPGEPASISCTASQSLLYSIGYNYVDWYLQKSGQSPQLLIYLGNKRASGVPDRFSGSGSGTDFTLKISRVEAEDVGFYYCMQAYNSPYTFGQGTKLEIK = 0.00973

Here is the next item to consider.
query: Requested read-out: Kd. Entry: Construct 42 (mAb481) (antibody, IgG4, V domains shown, VH/VL only) VH: EVQLVESGGGLEQPGGSLRLSCAGSGFTFRTYAMTWVRQAPGKGLEWVSSISGDGSNTYYADSVKGRFTISRDNSKNTLYLQMNSLRAEDTAVYYCAKDRVSITIRPRYYGLDVWGQGTTVTVSS VL: DIVMTQSPLSLPVTPGEPASISCTASQSLLYSIGYNYVDWYLQKSGQSPQLLIYLGNKRASGVPDRFSGSGSGTDFTLKISRVEAEDVGFYYCMQALTTPYTFGQGTKLEIK
result: 0.0111
